Experiment: Half life in ICR mouse at 4 mg/kg, iv measured upto 24 hrs by LC-MS/MS analysis
Assay type: ADME, organism-based
Conditions: in vivo
measure name: half-life
Remember to put the unit after the number in your answer.

GET /values?readout=half-life&item= `Cc1ccc(Nc2nc(Cl)nc3c2ncn3Cc2ccc(C(=O)Nc3ccccc3N)cc2)cc1`
88.8 min

###

Target: Histone deacetylase 1 (Homo sapiens, UniProt Q13547)
Sequence (Q13547 whole entry): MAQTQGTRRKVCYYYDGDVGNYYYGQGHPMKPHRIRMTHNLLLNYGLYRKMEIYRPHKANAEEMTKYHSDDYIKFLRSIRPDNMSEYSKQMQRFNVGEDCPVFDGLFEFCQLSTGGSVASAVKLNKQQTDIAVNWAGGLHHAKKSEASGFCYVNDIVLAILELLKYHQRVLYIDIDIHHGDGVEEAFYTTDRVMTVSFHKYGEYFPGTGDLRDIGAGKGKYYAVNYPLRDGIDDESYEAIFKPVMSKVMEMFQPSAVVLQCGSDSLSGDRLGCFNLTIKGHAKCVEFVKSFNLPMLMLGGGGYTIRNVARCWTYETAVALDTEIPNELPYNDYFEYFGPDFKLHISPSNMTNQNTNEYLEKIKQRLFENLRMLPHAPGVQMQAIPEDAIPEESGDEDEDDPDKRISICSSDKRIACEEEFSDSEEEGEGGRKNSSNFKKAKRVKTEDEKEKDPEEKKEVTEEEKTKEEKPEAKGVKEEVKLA
Assay: Inhibition of recombinant human HDAC1 using SIRT1 as substrate incubated for 10 mins followed by substrate addition and measured after 30 mins by fluorescence based assay
measure name: pIC50
// field semantics: pIC50 = negative decimal log of concentration (mol/L)

# pIC50 lookup, item `Cc1ccc(Nc2nc(Cl)nc3c2ncn3Cc2ccc(C(=O)Nc3ccccc3N)cc2)cc1`
7.15
